System: Proteus vulgaris
Test: Antibacterial activity against Proteus vulgaris NCIM 2027 at 200 ug/disk after 24 hrs by agar disc-diffusion method
Type: functional
Conditions: NCIM 2027, 24 h, read-out: DIZ
Result type: zone of inhibition at 200 µg/disc (mm)

• O=S(=O)(Cc1ccc(Cl)cc1)Cc1nnc(-c2ccccc2)o1 = 17
• O=S(=O)(Cc1nnc(-c2ccccc2)o1)c1ccccc1 = 17
• O=S(=O)(Cc1ccccc1)Cc1nnc(-c2ccccc2)s1 = 24
• Nn1c(CS(=O)(=O)c2ccccc2)nnc1-c1ccccc1Cl = 18
• O=S(=O)(Cc1ccccc1)Cc1nnc(-c2ccccc2Cl)s1 = 22
• O=S(=O)(Cc1nnc(-c2ccccc2Cl)o1)c1ccc(Cl)cc1 = 19

---

Recorded measurements of zone of inhibition at 100 µg/disc, one per entry
Tested on: Fusarium solani
Assay: Antifungal activity against Fusarium solani NCIM 1330 at 100 ug/disk after 48 hrs by agar disc-diffusion method
Format: functional
Conditions: NCIM 1330, 48 h, read-out: DIZ
Result type: zone of inhibition at 100 µg/disc (mm)

• O=S(=O)(Cc1nnc(-c2ccccc2Cl)s1)c1ccc(Cl)cc1 = 20
• O=S(=O)(Cc1ccccc1)Cc1nnc(-c2ccccc2)o1 = 17
• Nn1c(CS(=O)(=O)c2ccccc2)nnc1-c1ccccc1 = 22
• O=S(=O)(Cc1nnc(-c2ccccc2)o1)c1ccc(Cl)cc1 = 16
• O=S(=O)(Cc1nnc(-c2ccccc2Cl)o1)c1ccc(Cl)cc1 = 16

---

Recorded measurements of zone of inhibition at 200 µg/disc, one per entry
Test system: Fusarium solani
Assay: Antifungal activity against Fusarium solani NCIM 1330 at 200 ug/disk after 48 hrs by agar disc-diffusion method
Format: functional
Conditions: NCIM 1330, 48 h, read-out: DIZ
Result type: zone of inhibition at 200 µg/disc (mm)

- O=S(=O)(Cc1nnc(-c2ccccc2Cl)s1)c1ccccc1: 22
- Nn1c(CS(=O)(=O)c2ccccc2)nnc1-c1ccccc1: 25
- O=S(=O)(Cc1nnc(-c2ccccc2)o1)c1ccccc1: 18
- O=S(=O)(Cc1nnc(-c2ccccc2)o1)c1ccc(Cl)cc1: 20
- O=S(=O)(Cc1ccccc1)Cc1nnc(-c2ccccc2)o1: 20
